Reference source: ChEMBL document CHEMBL1201862

GI50 tested on HCT-15: recorded values

{"compound": "OC/C=C(\\I)CCCOCOCc1ccccc1", "GI50": "38.5 µM"}
{"compound": "CC(=O)OCC1OC(Nc2ncc(-c3ccc(C)cc3)s2)C(OC(C)=O)C(OC(C)=O)C1OC(C)=O (stereo not drawn)", "GI50": "37.5 µM"}
{"compound": "Clc1ccccc1C1SCc2nc3ccccc3n21 (stereo not drawn)", "GI50": "22.6 µM"}
{"compound": "CN(C)CCOc1cc2c(c3ccccc13)-c1ccccc1C2=O", "GI50": "1.18 µM"}
{"compound": "COC12OCCN(CCO)C1=CC(=O)C1(C)N=NC(C)C12 (stereo not drawn)", "GI50": "> 100 µM"}
{"compound": "O=C(Nc1c(C(F)(F)F)cc(-c2ccccc2)[nH]c1=O)N1CCOCC1", "GI50": "> 100 µM"}
{"compound": "Cc1ccccc1N1C(N)=C(C#N)C(C#N)(C#N)C1c1ccccc1 (stereo not drawn)", "GI50": "16.6 µM"}
{"compound": "CC(C)=CCOc1cc(NC(=S)c2ccoc2C)ccc1Cl", "GI50": "> 100 µM"}

----------
# Test system: OVCAR-3
# method-description: NCI tumour cell line growth inhibition, 48 h
Active and inactive are the calls of the source. Rule as the data show it: active = GI50 up to about 1.1 µM and inactive = higher.
Collected GI50 values appear next to each entry.

{"compound": "COC(=O)c1c2c(cc3c1CC1(C3)Cc3ccc4c(c3C1=O)CCC4)CCC2 (stereo not given)", "GI50": "1.94 µM (inactive)"}
{"compound": "OC1CSCCCSCCSCCCSC1", "GI50": "> 100 µM (inactive)"}
{"compound": "Cn1c2c(c3ccccc3c1=O)C(=O)c1ccccc1-2", "GI50": "76.4 µM (inactive)"}
{"compound": "CC(=O)NNc1nc(C)c(C(=O)NNC(=O)C(=O)Nc2c([N+](=O)[O-])ccc(C)c2C)s1", "GI50": "> 100 µM (inactive)"}
{"compound": "CCc1n[nH]c(=O)n1-c1ccncc1", "GI50": "> 100 µM (inactive)"}
{"compound": "COC(=O)C(C(=O)C(=O)NC1=C(Cl)C(=O)c2ccccc2C1=O)c1csc(-n2nc(-c3ccccc3)cc2-c2ccccc2)n1 (stereo not given)", "GI50": "> 100 µM (inactive)"}
{"compound": "C=CCc1cccc2cc(C(=O)Nc3ccc(C)cc3)c(=N)oc12", "GI50": "> 100 µM (inactive)"}
{"compound": "COC1=NN2C(OC)(c3ccccc3)c3c(-c4ccccc4)sc(-c4ccccc4)c3C2(c2ccccc2)S1 (stereo not given)", "GI50": "> 10 µM (inactive)"}
{"compound": "COc1ccc(/N=c2\\ssc3c(=S)ssc23)cc1", "GI50": "25.2 µM (inactive)"}
{"compound": "CCCCN(CC)C(=O)C1=C(C)NC(C)=C(C(=O)N(CC)CCCC)C1", "GI50": "> 100 µM (inactive)"}

----------
# System: SNB-19
# method-description: NCI tumour cell line growth inhibition, 48 h
Activity calls are given as the source filed them. Cut-off read from the data, not from the text of the source: active = GI50 up to about 1.1 µM and inactive = higher.
Collected GI50 values appear next to each entry.
reported-property: GI50

{"molecule": "Cc1cc(=O)n2nc(CCl)sc2n1", "observed": "15.8 µM (inactive)"}
{"molecule": "COC(=O)/C(C#N)=C(\\Nc1ccccc1)N1CCCC1", "observed": "> 100 µM (inactive)"}
{"molecule": "COC(=O)C(=O)OC1(C(C)=O)CC2(c3ccccc3)OC1(c1ccccc1)c1ccccc12 (stereo unspecified)", "observed": "19.9 µM (inactive)"}
{"molecule": "CCN(CC)CCC1(C(=O)OC)SCCc2ccc(C)cc21 (stereo unspecified)", "observed": "> 100 µM (inactive)"}
{"molecule": "CN(C)C(=O)C(F)(F)C(c1ccc(Br)cc1)C1C(=O)N(C)C(=O)N(C)C1=O (stereo unspecified)", "observed": "> 100 µM (inactive)"}
{"molecule": "COc1cc2cnc3c4cc(OC)c(OC(C)C)cc4ccc3c2cc1OC", "observed": "> 100 µM (inactive)"}
